Assay: Acute toxicity, intraperitoneal, mice
Settings: mouse, in vivo, ip, intraperitoneally, read-out: lethal dose 50
Method: The acute toxicity is expressed by the lethal dose 50, that is to say the dose resulting in the death of 50% of the animals. This study was carried out on mice, to which the products under test were administered intraperitoneally. It was established as follows, for the following substances: […]
// reported LD50 for each item listed

COMPOUND	LD50
CCOC(=O)CCCCCCCCCCNS(=O)(=O)c1cc(Cl)c([N+](=O)[O-])cc1OC [compound 502]	3070 mg/kg
CCOC(=O)CCCCCCCCCCNS(=O)(=O)c1cccc([N+](=O)[O-])c1 [compound 676]	> 6400 mg/kg
COc1cc([N+](=O)[O-])c(Cl)cc1S(=O)(=O)NCCCCCC(=O)O [compound 362]	1760 mg/kg
CCOC(=O)CCCCCCCCCCNS(=O)(=O)c1ccc(OC)cc1 [compound 729]	> 6400 mg/kg
O=C(O)CCCCCNS(=O)(=O)c1cccc([N+](=O)[O-])c1 [compound 675]	930 mg/kg
Nc1ccc(S(=O)(=O)NCCCCCC(=O)O)cc1 [compound 665]	> 6400 mg/kg
COc1cc([N+](=O)[O-])c(Cl)cc1S(=O)(=O)NCCCC(=O)O [compound 387]	3070 mg/kg
